The reported numbers originate from the supplement of paper PMC11208160.

Readings of recombinant barcode read abundance (log10) for the listed sequences
ASSAY_EXPLANATION: recombinant barcode read abundance after kanamycin selection (control-corrected) (log10(CPM+1)); higher = more efficient recombination; sequences stand for … in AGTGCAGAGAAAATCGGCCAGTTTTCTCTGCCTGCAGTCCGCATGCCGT…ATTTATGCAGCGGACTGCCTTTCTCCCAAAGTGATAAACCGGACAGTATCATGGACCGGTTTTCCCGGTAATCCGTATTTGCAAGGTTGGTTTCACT; site = the 11-nt target
Write the value as a bare number.

Worked set:
TAGAGGGCCTGGGTTCTAACCTGTTGCGGAG [TAGAGGGCTCC_LTGcore_CC_RTGcore_CT] (site TAGAGGGCTCC) (LTG core: CC, RTG core: CT)
2.4
CGGTCCCGGTGGGTTCTAACCTGTTGCCACC [CGGTCCCCTTG_LTGcore_GG_RTGcore_GG] (site CGGTCCCCTTG) (LTG core: GG, RTG core: GG)
0.213
AGGCGGGAGTGGGTTCTAACCTGTTGCGGCT [AGGCGGGCTCC_LTGcore_AG_RTGcore_AG] (site AGGCGGGCTCC) (LTG core: AG, RTG core: AG)
0.0482

Specify reported recombinant barcode read abundance (log10) for the sequence shown: CGGTCCCCTTGGGTTCTAACCTGTTGCCAAC [CGGTCCCCTTG_LTGcore_CT_RTGcore_GT] (site CGGTCCCCTTG) (LTG core: CT, RTG core: GT)
0.0684

Annotate the sequence GAGTCCTTATGGGTTCTAACCTGTTGCCTTA [GAGTCCTCTAG_LTGcore_TA_RTGcore_TA] (site GAGTCCTCTAG) (LTG core: TA, RTG core: TA) with its measured recombinant barcode read abundance (log10).
0.136

Consider the sequence ATGTCCCCTTGGGTTCTAACCTGTTGCTCAG [ATGTCCCCTGA_LTGcore_CT_RTGcore_CT] (site ATGTCCCCTGA) (LTG core: CT, RTG core: CT) . State its measured recombinant barcode read abundance (log10).
1.46

Please supply the value of reported recombinant barcode read abundance (log10) for the item GGTGCCCCCTGGGTTCTAACCTGTTGCCGGG [GGTGCCCCTCG_LTGcore_CC_RTGcore_CC] (site GGTGCCCCTCG) (LTG core: CC, RTG core: CC)
0.387

Retrieve recombinant barcode read abundance (log10) measured for GTCGCCCCTTGGGTTCTAACCTGTTGCTAAC [GTCGCCCCTTA_LTGcore_CT_RTGcore_GT] (site GTCGCCCCTTA) (LTG core: CT, RTG core: GT) and print it.
0.102

In one line, give reported recombinant barcode read abundance (log10) of the entry CGGTCCCGCTGGGTTCTAACCTGTTGCCAAG [CGGTCCCCTTG_LTGcore_GC_RTGcore_CT] (site CGGTCCCCTTG) (LTG core: GC, RTG core: CT) .
0.313

Please indicate recombinant barcode read abundance (log10) recorded for CATATTAGGTGGGTTCTAACCTGTTGCCTCC [CATATTACTAG_LTGcore_GG_RTGcore_GG] (site CATATTACTAG) (LTG core: GG, RTG core: GG)
0.117

Provide recombinant barcode read abundance (log10) value for the following sequence: GCGGGACCTTGGGTTCTAACCTGTTGCCTTC [GCGGGACCTAG_LTGcore_CT_RTGcore_GA] (site GCGGGACCTAG) (LTG core: CT, RTG core: GA)
1.19
